Data origin: the RNAGym collection of RNA variant scans (doi:10.1073/pnas.2313332121)

B1: TPR t1 (parent)
chain: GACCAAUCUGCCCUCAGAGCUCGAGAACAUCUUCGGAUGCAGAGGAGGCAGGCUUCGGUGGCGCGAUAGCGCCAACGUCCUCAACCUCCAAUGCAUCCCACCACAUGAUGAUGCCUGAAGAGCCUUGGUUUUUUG

Variants of: B1
Experiment: polymerase ribozyme fitness, log enrichment relative to wild type (log ratio); higher = more active; in vitro selection for triplet polymerase activity
Decision: polymerase ribozyme fitness (log ratio) compared against -2; not below it gives true, below it gives false.

>>> df
       mutant_name  label_class
0  G63C C79U G117U        false

Request: Quick check, polymerase ribozyme fitness (log ratio) >= -2? C72U U78A
Result: true
